target: UniProt:P01116; assay: Binding to KRAS by surface plasmon resonance (SPR), Single Cycle Kinetics; conditions: SPR Single Cycle Kinetics, GDP-bound KRAS wild-type protein, 1:1 binding model; read-out: KRAS KD
Sequence (P01116 whole entry): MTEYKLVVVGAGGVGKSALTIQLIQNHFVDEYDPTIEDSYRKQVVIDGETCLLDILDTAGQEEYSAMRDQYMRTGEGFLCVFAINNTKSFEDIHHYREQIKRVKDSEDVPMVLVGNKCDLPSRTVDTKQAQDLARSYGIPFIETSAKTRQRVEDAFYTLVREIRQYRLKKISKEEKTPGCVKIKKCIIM
Where a SMILES comes first, the peptide text is derived from it. Bridges are numbered along the chain shown (N, C = ends). [ ]: non-standard residue; d: D form. The star is where a group is joined. hPhe(3,5-F2-4-CF3) = N[C@@H](CCc1cc(F)c(C(F)(F)F)c(F)c1)C(=O)O; NPrPhe(4-CF3) = CCCN[C@@H](Cc1ccc(C(F)(F)F)cc1)C(=O)O; NMeGly(cPent) = CN[C@H](C(=O)O)C1CCCC1; NMeD = CN[C@@H](CC(=O)O)C(=O)O; Ac4c(3-oxa) = NC1(C(=O)O)COC1; NMeL = CN[C@@H](CC(C)C)C(=O)O; Morpholide = C1CN(*)CCO1; Aze = O=C(O)[C@@H]1CCN1; Sar = CNCC(=O)O
quantity name: pKd
Just the number, please; pKd means minus log10 of the concentration in mol/L.

These solved cases illustrate the format of a correct answer.
compound=CC[C@H](C)[C@@H]1NC(=O)[C@H](CC(C)C)N(C)C(=O)C[C@@H](C(=O)N2CCCC2)N(C)C(=O)[C@H](C2CCCC2)N(C)C(=O)C2(CCCC2)NC(=O)[C@@H]2CCCN2C(=O)[C@H](CCc2cc(F)c(C(F)(F)F)c(F)c2)NC(=O)CN(C)C(=O)[C@H](Cc2ccc(C(F)(F)F)cc2)N2CCCCC[C@@H](C2=O)N(C)C(=O)CN(C)C1=O quantity_name=pKd quantitative_result=8.62
compound="CCCN1C(=O)CN(C)C(=O)[C@@H]2CCN2C(=O)[C@H]([C@@H](C)CC)NC(=O)[C@H](CC(C)C)N(C)C(=O)C[C@@H](C(=O)N2CCOCC2)N(C)C(=O)[C@H](C2CCCC2)N(C)C(=O)C2(COC2)NC(=O)[C@@H]2CCCN2C(=O)[C@H](CCc2cc(F)c(C(F)(F)F)c(F)c2)NC(=O)CN(C)C(=O)[C@@H]1Cc1ccc(C(F)(F)F)cc1 [PP0782] ([NMeL]I[Aze][Sar][NPrPhe(4-CF3)][Sar][hPhe(3,5-F2-4-CF3)]P[Ac4c(3-oxa)][NMeGly(cPent)][NMeD]-Morpholide; lactam N-11)" quantity_name=pKd quantitative_result=8.64

The record that follows has no pKd shown yet.
query: For the compound CC[C@H](C)[C@@H]1NC(=O)[C@H](CC(C)C)N(C)C(=O)C[C@@H](C(=O)N2CCOCC2)N(C)C(=O)[C@H](C2CCCC2)N(C)C(=O)C2(CCCC2)NC(=O)[C@@H]2CCCN2C(=O)[C@H](CCc2ccc(C(F)(F)F)c(Cl)c2)NC(=O)CN(C)C(=O)[C@H](Cc2ccc(C)cc2)N2CCCCC[C@@H](C2=O)N(C)C(=O)CN(C)C1=O , what pKd is on record?
result: 9.07
